- System: EGFRvIII-mFc
- Sequence (as listed by the source): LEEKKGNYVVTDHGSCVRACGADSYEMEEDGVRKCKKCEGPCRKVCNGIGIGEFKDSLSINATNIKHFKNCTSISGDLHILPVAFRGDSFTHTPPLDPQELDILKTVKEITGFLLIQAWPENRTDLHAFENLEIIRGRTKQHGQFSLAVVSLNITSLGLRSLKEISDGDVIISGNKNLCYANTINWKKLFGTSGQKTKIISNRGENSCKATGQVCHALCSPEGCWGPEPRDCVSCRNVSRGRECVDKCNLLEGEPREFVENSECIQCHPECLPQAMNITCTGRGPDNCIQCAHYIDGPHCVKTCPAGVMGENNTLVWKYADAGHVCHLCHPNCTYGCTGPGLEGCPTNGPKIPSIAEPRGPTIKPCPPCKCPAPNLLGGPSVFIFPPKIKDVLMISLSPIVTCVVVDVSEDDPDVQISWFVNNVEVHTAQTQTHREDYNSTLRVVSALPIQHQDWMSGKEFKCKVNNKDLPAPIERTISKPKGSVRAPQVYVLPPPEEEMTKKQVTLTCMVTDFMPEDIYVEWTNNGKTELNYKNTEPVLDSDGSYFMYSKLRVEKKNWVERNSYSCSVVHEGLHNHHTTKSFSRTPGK
- Type: binding, human
- Test conditions: 37° C., receptor-capture, EGFRvIII-mFc captured
- Protocol: Measurements were conducted on a T100 BIACORE™ instrument. […] In the receptor-capture format, either EGFRvIII-mFc or EGFR-mFc, was captured on the BIACORE™ chip and the respective antibodies flowed over. Kinetic association (ka) and dissociation (kd) rate constants were determined by processing and fitting the data to a 1:1 binding model using Scrubber 2.0 curve fitting software. […]
Quantity measured: ka (M⁻¹ s⁻¹)
Your answer should be a plain number; it is taken to be in M⁻¹ s⁻¹.

Fill blank: measured ka of the molecule H1H2195P: human IgG1 Fc anti-EGFRvIII antibody; HCVR/LCVR SEQ ID NOs 18/26 (antibody, V domains shown, human IgG1 Fc) VH: QVQLVESGGGVVQPGRSRRLSCVGSGFIFSSYGMHWVRQAPGKGLEWVALIFYDGSNEYYVDSVKGRFTISRDNSKNTLYLQMNSLRAEDTAVYYCAREGYSQRYKYYFGMDVWGQGTTVTVSS VL: DIQMTQSPSSVSASVGDRVTITCRASQGISSWLAWYQQQPGKAPKLLIYAASSLQSGVPSRFSGSGSGTDFTLTISSLQPEDFATYYCQQTNSFPLTFGGGTKVEIKR is ____.
237000
